Test system: RAW264.7
Assay: Antiinflammatory activity in mouse RAW264.7 cells assessed as inhibition of LPS-induced TNFalpha production treated 2 hrs before LPS challenge measured after 24 hrs by ELISA
Type: functional, cell-based
Conditions: in the assay text read “measured after 18 hrs” for “measured after 24 hrs”
Observed property: IC50

Below, 10 molecules whose answers are already recorded.
molecule=CCO[C@H]1O[C@@H]([C@H](O)C(C)(C)O)C[C@H]1[C@H]1CC=C2[C@]3(C)[C@H](O)C[C@H]4C(C)(C)[C@H](OC(C)=O)CC[C@]4(C)[C@H]3CC[C@]21C endpoint_result="> 100 µM"
molecule=CC(=O)O[C@@H]1CC[C@]2(C)[C@H]3CC[C@]4(C)C(=CC[C@@H]4[C@H]4CO[C@](O)(C(C)(C)O)[C@H](O)C4)[C@]3(C)[C@H](OC(C)=O)C[C@H]2C1(C)C endpoint_result="26.9 µM"
molecule=CO[C@@H]1O[C@@H]([C@H](O)C(C)(C)O)C[C@H]1[C@H]1CC=C2[C@]3(C)[C@H](O)C[C@H]4C(C)(C)[C@H](OC(C)=O)CC[C@]4(C)[C@H]3CC[C@]21C endpoint_result="> 100 µM"
molecule=CO[C@H]1O[C@@H]([C@H](O)C(C)(C)OC)C[C@H]1[C@H]1CC=C2[C@]3(C)[C@H](O)C[C@H]4C(C)(C)[C@H](OC(C)=O)CC[C@]4(C)[C@H]3CC[C@]21C endpoint_result="> 100 µM"
molecule=CCOC(C)(C)[C@@H](O)[C@H]1C[C@@H]([C@H]2CC=C3[C@]4(C)[C@H](O)C[C@H]5C(C)(C)[C@H](OC(C)=O)CC[C@]5(C)[C@H]4CC[C@]32C)[C@@H](OC)O1 endpoint_result="> 100 µM"
molecule=CO[C@@H]1O[C@@H]([C@H](O)C(C)(C)O)C[C@H]1[C@H]1CC[C@]2(C)C3=CC[C@H]4C(C)(C)C(=O)CC[C@]4(C)[C@H]3CC[C@@]12C endpoint_result="54.6 µM"
molecule=CC(=O)O[C@@H]1CC[C@]2(C)[C@H]3CC[C@]4(C)C(=CC[C@@H]4[C@H]4CO[C@](O)(C(C)(C)O)[C@H](O)C4)[C@]3(C)[C@H](O)C[C@H]2C1(C)C endpoint_result="30.7 µM"
molecule=O=c1c(-c2ccc(O)cc2)coc2cc(O)cc(O)c12 endpoint_result="19.1 µM"
molecule=CC(=O)O[C@@H]1CC[C@]2(C)[C@H]3CC[C@]4(C)C(=CC[C@@H]4[C@H]4CO[C@H](C(C)(C)O)[C@H](O)C4)[C@]3(C)[C@H](O)C[C@H]2C1(C)C endpoint_result="73.5 µM"
molecule=CO[C@@H]1O[C@@H]([C@H](O)C(C)(C)OC)C[C@H]1[C@H]1CC=C2[C@]3(C)[C@H](O)C[C@H]4C(C)(C)[C@H](OC(C)=O)CC[C@]4(C)[C@H]3CC[C@]21C endpoint_result="> 100 µM"

IC50 reported for this molecule `CCOC(C)(C)[C@@H](O)[C@H]1C[C@@H]([C@H]2CC=C3[C@]4(C)[C@H](O)C[C@H]5C(C)(C)[C@H](OC(C)=O)CC[C@]5(C)[C@H]4CC[C@]32C)[C@H](OC)O1` : > 100 µM

Lookup result for `C=C(C)[C@@H](O)[C@H]1C[C@@H]([C@H]2CC=C3[C@]4(C)[C@H](O)C[C@H]5C(C)(C)[C@H](OC(C)=O)CC[C@]5(C)[C@H]4CC[C@]32C)[C@H](OC)O1` ; measured IC50: > 100 µM

Record `CC(=O)O[C@@H]1CC[C@]2(C)[C@H]3CC[C@]4(C)C(=CC[C@@H]4[C@H]4COC(C)(C)[C@@H](O)[C@H](O)C4)[C@]3(C)[C@H](O)C[C@H]2C1(C)C` , field IC50: > 100 µM

So for `CC(=O)O[C@@H]1CC[C@]2(C)[C@H]3CC[C@]4(C)C(=CC[C@@H]4[C@H]4COC(C)(C)[C@@H](O)[C@H](O)C4)[C@]3(C)[C@H](OC(C)=O)C[C@H]2C1(C)C` , the logged IC50 turned out to be > 100 µM

Field IC50 (entry CC(=O)O[C@@H]1CC[C@]2(C)[C@H]3CC[C@]4(C)C(=CC[C@H]4C4=CC(C(O)C(C)(C)O)OC4=O)[C@]3(C)[C@H](O)C[C@H]2C1(C)C (stereo partly drawn) ) reads 47.4 µM

Per the record, `C=C(C)[C@@H](O)[C@H]1C[C@@H]([C@H]2CC=C3[C@]4(C)[C@H](O)C[C@H]5C(C)(C)[C@H](OC(C)=O)CC[C@]5(C)[C@H]4CC[C@]32C)[C@H](OCC)O1` has IC50 of > 100 µM

Recorded IC50 (molecule `CCO[C@@H]1O[C@@H]([C@H](O)C(C)(C)O)C[C@H]1[C@H]1CC=C2[C@]3(C)[C@H](O)C[C@H]4C(C)(C)[C@H](OC(C)=O)CC[C@]4(C)[C@H]3CC[C@]21C` ): > 100 µM

Value of measured IC50 for the entry `CO[C@H]1O[C@@H]([C@H](O)C(C)(C)O)C[C@H]1[C@H]1CC=C2[C@]3(C)[C@H](O)C[C@H]4C(C)(C)[C@H](OC(C)=O)CC[C@]4(C)[C@H]3CC[C@]21C` : > 100 µM
